Molecular target: UniProt P29990
Format: functional, Thailand/16681/1984
Measured parameter: IC50

The cases that follow already have their IC50 on record.
{"Smiles string": "Cc1c(C(=O)Nc2cccc(C3CCOCC3)c2)cc(C2CC2)n1C", "Measured parameter": "IC50", "Observed": "> 99.5 µM"}
{"Smiles string": "C[C@@H]1C[C@H](NS(=O)(=O)c2ccc(Cl)cc2C(=O)O)C[C@H](C)N1Cc1ccccc1", "Measured parameter": "IC50", "Observed": "> 99.5 µM"}
{"Smiles string": "Cn1c(Sc2nc3ccccc3o2)nc2sccc2c1=O", "Measured parameter": "IC50", "Observed": "> 99.5 µM"}
{"Smiles string": "O=C(Nc1cc(Cl)cc([C@H](Nc2cccc(-c3nn[nH]n3)c2)C(=O)NC[C@H]2CCCO2)c1)OCc1ccccc1", "Measured parameter": "IC50", "Observed": "33.7 µM"}
{"Smiles string": "O=Cc1ccc(N2CCC(C(=O)NCCC3CCN(Cc4ccccc4)CC3)CC2)cc1", "Measured parameter": "IC50", "Observed": "99.7 µM"}
{"Smiles string": "Cc1nccn1-c1ccc(NS(=O)(=O)c2ccc(Cl)cc2C(=O)O)cc1F", "Measured parameter": "IC50", "Observed": "> 99.5 µM"}
{"Smiles string": "Cn1ccc(Nc2ccc(S(=O)(=O)Nc3ccc(Cl)cc3C(=O)O)cn2)n1", "Measured parameter": "IC50", "Observed": "> 99.5 µM"}
{"Smiles string": "O=Cc1ccc(N2CCC(C(=O)N3CCC(N4CCc5ccccc5C4)CC3)CC2)cc1", "Measured parameter": "IC50", "Observed": "> 99.9 µM"}

For the next question, use this molecule.
IC50 in this record for `CNC(=O)[C@H](Nc1ccc2c(c1)CNC2)c1cc(Cl)cc2[nH]c(-c3ccccc3)nc12` : 49.6 µM

---

Target: Genome polyprotein (dengue virus type 2, UniProt P29990)
Sequence (P29990 1346-1475 limits assumed): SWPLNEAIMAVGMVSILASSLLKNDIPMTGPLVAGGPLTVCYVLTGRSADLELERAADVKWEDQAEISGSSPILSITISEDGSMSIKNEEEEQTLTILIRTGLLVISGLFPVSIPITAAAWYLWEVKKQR
Sequence (P29990 1476-2093 limits assumed): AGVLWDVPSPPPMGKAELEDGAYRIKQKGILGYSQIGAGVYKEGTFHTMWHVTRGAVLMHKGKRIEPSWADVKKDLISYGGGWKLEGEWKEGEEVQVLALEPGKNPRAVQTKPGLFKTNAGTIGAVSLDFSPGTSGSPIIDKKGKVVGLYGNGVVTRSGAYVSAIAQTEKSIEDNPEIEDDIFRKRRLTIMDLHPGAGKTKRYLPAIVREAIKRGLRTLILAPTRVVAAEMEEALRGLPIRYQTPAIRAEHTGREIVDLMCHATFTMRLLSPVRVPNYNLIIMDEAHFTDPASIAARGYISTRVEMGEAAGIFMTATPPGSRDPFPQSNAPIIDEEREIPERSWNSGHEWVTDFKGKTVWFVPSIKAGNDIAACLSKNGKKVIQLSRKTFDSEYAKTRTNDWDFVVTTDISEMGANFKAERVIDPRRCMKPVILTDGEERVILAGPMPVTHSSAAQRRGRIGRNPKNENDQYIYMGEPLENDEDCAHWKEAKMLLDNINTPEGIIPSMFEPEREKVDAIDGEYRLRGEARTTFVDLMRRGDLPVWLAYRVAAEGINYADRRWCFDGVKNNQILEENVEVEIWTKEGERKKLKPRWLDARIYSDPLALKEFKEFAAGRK
Assay type: functional, Thailand/16681/1984
Measured parameter: IC50

Worked set:
{"Smiles string": "CCc1ccc(-c2nc3c(C(=O)Nc4ccc5c(c4)CNC5)cc(Cl)cc3[nH]2)cc1", "IC50": "42.9 µM"}
{"Smiles string": "O=C(Nc1ccc2c(c1)CNC2)c1cccc2c3c([nH]c12)CCC3", "IC50": "> 100 µM"}
{"Smiles string": "NCc1cccc(N[C@H](C#CCO)c2cc(Cl)cc(NC(=O)OCc3ccccc3)c2)c1", "IC50": "> 100 µM"}
{"Smiles string": "Cc1nc2c(C(=O)Nc3ccc4c(c3)CNC4)cc(Cl)cc2[nH]1", "IC50": "80.9 µM"}
{"Smiles string": "O=C(Nc1cc(Cl)cc(C(=O)Nc2ccnc(C(=O)O)c2)c1)OCc1ccccc1", "IC50": "> 100 µM"}
{"Smiles string": "O=C1Cc2c(cccc2C(=O)NC2CCN(c3nccs3)CC2)N1", "IC50": "> 100 µM"}
{"Smiles string": "CC(C)Oc1ccc(Cl)cc1[C@H](Nc1ccc2c(c1)CNC2)C(=O)NCC(F)F", "IC50": "> 100 µM"}
{"Smiles string": "COC(=O)C(C)(C)NC(=O)[C@H](Nc1ccc2c(c1)CNC2)c1cc(Cl)cc(C2CC2)c1", "IC50": "> 100 µM"}

Lab book: IC50 of `NCCCn1c(C2CC2)cc(C(=O)Nc2cc([C@H]3CCOC3)ccn2)c1C1CC1` noted as > 100 µM

The molecule `Cc1cc(NC(=O)c2cc(C3CC3)n(C)c2C)ccc1OC1CCOCC1` showed IC50 equal to > 100 µM
